# System: SUM149PT spheroids with HUVEC/MSC, viability
# method: Anticancer human tumor SUM149PT cell line growth inhibition [GQUAD];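 note: spheroids exposed to drugs for seven days before readout; percent viability relative to DMSO vehicle control taken as 100%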
# details: second compound 0.0316 µM; first compound 3.16 µM; active compounds read low
viability, T/C by entry:
endpoint: viability, T/C (%)

| molecule | endpoint | quantitativeResult |
| --- | --- | --- |
| CC(=O)O[C@H]1C(=O)[C@@]2(C)[C@H]([C@H](OC(=O)c3ccccc3)[C@]3(O)C[C@H](OC(=O)[C@H](O)[C@@H](NC(=O)c4ccccc4)c4ccccc4)C(C)=C1C3(C)C)[C@]1(OC(C)=O)CO[C@@H]1C[C@@H]2O + CN(C)c1ccc(Nc2c3ccc(NC(=O)CCN4CCCC4)cc3nc3cc(NC(=O)CCN4CCCC4)ccc23)cc1 | viability, T/C | 19.8 |
| CC1COCCN1c1cc(C2(O)CC3CCC(C2)O3)c2cnn(-c3ccn[nH]3)c2n1 (stereo not given) + Cc1[nH]c2ccc(F)cc2c1-c1nc2c3cccnc3c3ncccc3c2[nH]1 | viability, T/C | 22 |
| CC(=O)O[C@H]1C(=O)[C@@]2(C)[C@H]([C@H](OC(=O)c3ccccc3)[C@]3(O)C[C@H](OC(=O)[C@H](O)[C@@H](NC(=O)c4ccccc4)c4ccccc4)C(C)=C1C3(C)C)[C@]1(OC(C)=O)CO[C@@H]1C[C@@H]2O + Cc1[nH]c2ccc(F)cc2c1-c1nc2c3cccnc3c3ncccc3c2[nH]1 | viability, T/C | 19 |
| COc1ncnc(C2CC2)c1-c1ncc2cnn(Cc3ccc(-c4nc(C(F)(F)F)cn4C(C)C)cc3)c2n1 + Cc1[nH]c2ccc(F)cc2c1-c1nc2c3cccnc3c3ncccc3c2[nH]1 | viability, T/C | 91.6 |
| Cc1cccc(N(C)C(=O)C2C(O)CCN2c2nc(C)cc(C(F)(F)F)c2C#N)c1 (stereo not given) + Cc1[nH]c2ccc(F)cc2c1-c1nc2c3cccnc3c3ncccc3c2[nH]1 | viability, T/C | 96.5 |
| COc1cc(C2c3cc4c(cc3C(OC3OC5COC(C)OC5C(O)C3O)C3COC(=O)C23)OCO4)cc(OC)c1O (stereo not given) + CN(C)c1ccc(Nc2c3ccc(NC(=O)CCN4CCCC4)cc3nc3cc(NC(=O)CCN4CCCC4)ccc23)cc1 | viability, T/C | 44.8 |
| Nc1ccn(C2OC(CO)C(O)C2(F)F)c(=O)n1 (stereo not given) + Cc1cnc(CNC(=O)c2c(=O)c3ccc(N4CCCN(C)CC4)nc3n3c2sc2ccccc23)cn1 | viability, T/C | 17.5 |
| COc1ccc([C@@H](O)c2cc(-c3ncnc4cc(N5CCOCC5)ccc34)c(F)cc2Cl)nn1 + Cc1[nH]c2ccc(F)cc2c1-c1nc2c3cccnc3c3ncccc3c2[nH]1 | viability, T/C | 29.9 |
| CC1COCCN1c1cc(C2(O)CC3CCC(C2)O3)c2cnn(-c3ccn[nH]3)c2n1 (stereo not given) + Cc1cnc(CNC(=O)c2c(=O)c3ccc(N4CCCN(C)CC4)nc3n3c2sc2ccccc23)cn1 | viability, T/C | 19.6 |
| CC(=O)O[C@H]1C(=O)[C@@]2(C)[C@H]([C@H](OC(=O)c3ccccc3)[C@]3(O)C[C@H](OC(=O)[C@H](O)[C@@H](NC(=O)c4ccccc4)c4ccccc4)C(C)=C1C3(C)C)[C@]1(OC(C)=O)CO[C@@H]1C[C@@H]2O + Cc1cnc(CNC(=O)c2c(=O)c3ccc(N4CCCN(C)CC4)nc3n3c2sc2ccccc23)cn1 | viability, T/C | 11.8 |

* * *

viability, T/C by entry:
# Tested on: SUM149PT spheroids with HUVEC/MSC, viability
# method: Anticancer human tumor SUM149PT cell line growth inhibition [GQUAD];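 note: spheroids exposed to drugs for seven days before readout; percent viability relative to DMSO vehicle control taken as 100%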
# details: second compound 1 µM; first compound 3.16 µM; active compounds read low

| molecule | viability, T/C [%] |
| --- | --- |
| CC(=O)O[C@H]1C(=O)[C@@]2(C)[C@H]([C@H](OC(=O)c3ccccc3)[C@]3(O)C[C@H](OC(=O)[C@H](O)[C@@H](NC(=O)c4ccccc4)c4ccccc4)C(C)=C1C3(C)C)[C@]1(OC(C)=O)CO[C@@H]1C[C@@H]2O + CN(C)c1ccc(Nc2c3ccc(NC(=O)CCN4CCCC4)cc3nc3cc(NC(=O)CCN4CCCC4)ccc23)cc1 | 17 |
| O=C(c1cc(Cc2n[nH]c(=O)c3ccccc23)ccc1F)N1CCN(C(=O)C2CC2)CC1 + CN(C)c1ccc(Nc2c3ccc(NC(=O)CCN4CCCC4)cc3nc3cc(NC(=O)CCN4CCCC4)ccc23)cc1 | 92.4 |
| COc1cc(C2c3cc4c(cc3C(OC3OC5COC(C)OC5C(O)C3O)C3COC(=O)C23)OCO4)cc(OC)c1O (stereo not given) + Cc1cnc(CNC(=O)c2c(=O)c3ccc(N4CCCN(C)CC4)nc3n3c2sc2ccccc23)cn1 | 24.5 |
| C#Cc1c(F)ccc2cc(O)cc(-c3ncc4c(N5CC6CCC(C5)N6)nc(OCC56CCCN5CC(F)C6)nc4c3F)c12 (stereo not given) + Cc1cnc(CNC(=O)c2c(=O)c3ccc(N4CCCN(C)CC4)nc3n3c2sc2ccccc23)cn1 | 24.2 |
| CCCS(=O)(=O)Nc1ccc(F)c(C(=O)c2c[nH]c3ncc(-c4ccc(Cl)cc4)cc23)c1F + Cc1cnc(CNC(=O)c2c(=O)c3ccc(N4CCCN(C)CC4)nc3n3c2sc2ccccc23)cn1 | 37.7 |
| CC1COCCN1c1cc(-c2ccnn2C)c2ccnc(-c3ccn[nH]3)c2n1 (stereo not given) + CN(C)c1ccc(Nc2c3ccc(NC(=O)CCN4CCCC4)cc3nc3cc(NC(=O)CCN4CCCC4)ccc23)cc1 | 26.8 |
| C=CCn1c(=O)c2cnc(Nc3ccc(N4CCN(C)CC4)cc3)nc2n1-c1cccc(C(C)(C)O)n1 + CN(C)c1ccc(Nc2c3ccc(NC(=O)CCN4CCCC4)cc3nc3cc(NC(=O)CCN4CCCC4)ccc23)cc1 | 9.65 |
| COc1cccc2c1C(=O)c1c(O)c3c(c(O)c1C2=O)CC(O)(C(=O)CO)CC3OC1CC(N)C(O)C(C)O1 (stereo not given) + Cc1[nH]c2ccc(F)cc2c1-c1nc2c3cccnc3c3ncccc3c2[nH]1 | 2.12 |
| C=CC(=O)N1CCN(c2nc(=O)n(-c3c(C)ccnc3C(C)C)c3nc(-c4c(O)cccc4F)c(F)cc23)C(C)C1 (stereo not given) + Cc1cnc(CNC(=O)c2c(=O)c3ccc(N4CCCN(C)CC4)nc3n3c2sc2ccccc23)cn1 | 56.3 |
| CCCS(=O)(=O)Nc1ccc(F)c(C(=O)c2c[nH]c3ncc(-c4ccc(Cl)cc4)cc23)c1F + Cc1[nH]c2ccc(F)cc2c1-c1nc2c3cccnc3c3ncccc3c2[nH]1 | 79.6 |
| COc1ccc([C@@H](O)c2cc(-c3ncnc4cc(N5CCOCC5)ccc34)c(F)cc2Cl)nn1 + Cc1[nH]c2ccc(F)cc2c1-c1nc2c3cccnc3c3ncccc3c2[nH]1 | 32.5 |
| CC1COCCN1c1cc(-c2ccnn2C)c2ccnc(-c3ccn[nH]3)c2n1 (stereo not given) + Cc1[nH]c2ccc(F)cc2c1-c1nc2c3cccnc3c3ncccc3c2[nH]1 | 24.8 |
| CC1COCCN1c1cc(C2(O)CC3CCC(C2)O3)c2cnn(-c3ccn[nH]3)c2n1 (stereo not given) + CN(C)c1ccc(Nc2c3ccc(NC(=O)CCN4CCCC4)cc3nc3cc(NC(=O)CCN4CCCC4)ccc23)cc1 | 21.5 |
| O=C(c1cc(Cc2n[nH]c(=O)c3ccccc23)ccc1F)N1CCN(C(=O)C2CC2)CC1 + Cc1cnc(CNC(=O)c2c(=O)c3ccc(N4CCCN(C)CC4)nc3n3c2sc2ccccc23)cn1 | 48.5 |
| COc1cccc2c1C(=O)c1c(O)c3c(c(O)c1C2=O)CC(O)(C(=O)CO)CC3OC1CC(N)C(O)C(C)O1 (stereo not given) + CN(C)c1ccc(Nc2c3ccc(NC(=O)CCN4CCCC4)cc3nc3cc(NC(=O)CCN4CCCC4)ccc23)cc1 | 3.28 |
| COc1cc(C2c3cc4c(cc3C(OC3OC5COC(C)OC5C(O)C3O)C3COC(=O)C23)OCO4)cc(OC)c1O (stereo not given) + Cc1[nH]c2ccc(F)cc2c1-c1nc2c3cccnc3c3ncccc3c2[nH]1 | 36.5 |
| CC(C)n1c(=O)n(C)c2cnc3cc(F)c(-c4ccc(OCCCN5CCCCC5)nc4)cc3c21 + Cc1[nH]c2ccc(F)cc2c1-c1nc2c3cccnc3c3ncccc3c2[nH]1 | 105 |
| COc1ncnc(C2CC2)c1-c1ncc2cnn(Cc3ccc(-c4nc(C(F)(F)F)cn4C(C)C)cc3)c2n1 + CN(C)c1ccc(Nc2c3ccc(NC(=O)CCN4CCCC4)cc3nc3cc(NC(=O)CCN4CCCC4)ccc23)cc1 | 64.2 |
| C#Cc1c(F)ccc2cc(O)cc(-c3ncc4c(N5CC6CCC(C5)N6)nc(OCC56CCCN5CC(F)C6)nc4c3F)c12 (stereo not given) + CN(C)c1ccc(Nc2c3ccc(NC(=O)CCN4CCCC4)cc3nc3cc(NC(=O)CCN4CCCC4)ccc23)cc1 | 61.1 |
| C=CCn1c(=O)c2cnc(Nc3ccc(N4CCN(C)CC4)cc3)nc2n1-c1cccc(C(C)(C)O)n1 + Cc1cnc(CNC(=O)c2c(=O)c3ccc(N4CCCN(C)CC4)nc3n3c2sc2ccccc23)cn1 | 13.7 |
